# Test system: Rhizopus arrhizus
# ASSAY NOTES: Antimicrobial activity against Rhizopus oryzae NICM 997 assessed as growth inhibition by two-fold serial dilution method
# Format: functional
# MIC per record follows
Reply with just the number (in µg/mL).

Cc1nn(-c2ccc(-c3nnc(S)o3)cc2)c(=O)n1/N=C/c1ccccc1Br: 37.5
Cc1nn(-c2ccc(-c3nnc(S)o3)cc2)c(=O)n1/N=C/c1cc(F)ccc1F: 18.8
Cc1nn(-c2ccc(-c3nnc(S)o3)cc2)c(=O)n1/N=C/c1cscn1: 37.5

Recall and state the measured MIC for `C[C@@H]1[C@H](O)[C@@H](C)/C=C/C=C/C=C/C=C/C=C/C=C/C=C/[C@H](O[C@@H]2O[C@H](C)[C@@H](O)[C@H](N)[C@@H]2O)C[C@@H]2O[C@](O)(C[C@@H](O)C[C@@H](O)[C@H](O)CC[C@@H](O)C[C@@H](O)CC(=O)O[C@H]1C)C[C@H](O)[C@H]2C(=O)O` .
1.56

Provide one value: measured MIC of `Cc1nn(-c2ccc(-c3nnc(S)o3)cc2)c(=O)n1/N=C/c1ccccc1F`
9.37
